Entry source: patent US7977366B2

- Tested on: human neutrophils
- Assay Overview: TNF-triggered H2O2 release (respiratory burst) by adherent human neutrophils
- Format: cell-based
- Setup Conditions: Homo sapiens, Neutrophil, 1.5 h; TNF 100 ng/ml, H2O2 release at 90 min; read-out: IC50, TNF triggered H2O2 release
Known IC50 of a selection of compounds
Experimental Endpoint: IC50 (nM)

{"Compound": "C(=N\\Nc1ncnc2sc3c(c12)CCCC3)/c1cccnc1 [Comp III]", "Test Result": 2500}
{"Compound": "CC1=NN(c2ccccc2)C(=O)/C1=C\\Nc1cccc2ccc(C)nc12 [Comp II′]", "Test Result": 22}
{"Compound": "O=C1CC(c2ccccc2)=NN1c1cccc(Cl)c1 [Comp II]", "Test Result": 1600}

###

- Tested on: human neutrophils
- Assay Overview: TNF-triggered H2O2 release (respiratory burst) by adherent human neutrophils
- Assay type: cell-based
- Setup Conditions: Homo sapiens, Neutrophil; TNF 100 ng/ml; range given with mixed units nM and μM; read-out: IC50, TNF triggered H2O2 release (very variable)
Experimental Endpoint: IC50

{"Molecule": "O=C(CSc1nc2ccccc2s1)N/N=C/c1cc([N+](=O)[O-])ccc1O [Comp IV]", "Target System": "human neutrophils", "Experimental Endpoint": "IC50", "Test Result": "3 to 2000 nM"}
